assay-system: T1, AFP158/HLA-A*02:01 complex (human)
T1 construct: flowed as analyte in SPR
method-summary: SPR, crude scFv captured, pMHC analyte;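 further: pMHC analyte injected at three concentrations, association phase of one hundred seconds, then running buffer for dissociation, rates fitted from both curves, KD derived from the rates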
property-name: kon (M⁻¹ s⁻¹)

{"binder": "AS170036 VL1VH1-98F108S (scFv, also called 33-AS170036 VL1VH1-98F108S) scFv: QSALTQPRSVSGSPGQSVTISCAGTSSDVGSENYVSWYQQHPGKAPKLMIYQVNKRASGVPDRFSGSKSGNTASLTISGLQAEDEADYYCASYRSSDFNIVFGGGTKLTVLGGGGSGGGGSGGGGSEVQLVESGGGLVQPGGSLRLSCAASGFTFSSYAMSWVRQAPGKGLEWVSTINSGTGSPYYADSVKGRFTISRDNSKNTLYLQMNSLRAEDTAVYYCAKNFFDGSWFLSPPAMDYWGQGTLVTVSSHHHHHH", "reported-value": 330000}
{"binder": "AS170036 VL1VH1-56Y98I (scFv, also called 02-AS170036 VL1VH1-56Y98I) scFv: QSALTQPRSVSGSPGQSVTISCAGTSSDVGSENYVSWYQQHPGKAPKLMIYQVNKRASGVPDRFSGSKSGNTASLTISGLQAEDEADYYCASYRSSDINIVFGGGTKLTVLGGGGSGGGGSGGGGSEVQLVESGGGLVQPGGSLRLSCAASGFTFSSYAMSWVRQAPGKGLEWVSTINSGTYSPYYADSVKGRFTISRDNSKNTLYLQMNSLRAEDTAVYYCAKNFFDGSWFLGPPAMDYWGQGTLVTVSSHHHHHH", "reported-value": 210000}
{"binder": "AS170036 VL1VH1-98Q108S (scFv, also called 39-AS170036 VL1VH1-98Q108S) scFv: QSALTQPRSVSGSPGQSVTISCAGTSSDVGSENYVSWYQQHPGKAPKLMIYQVNKRASGVPDRFSGSKSGNTASLTISGLQAEDEADYYCASYRSSDQNIVFGGGTKLTVLGGGGSGGGGSGGGGSEVQLVESGGGLVQPGGSLRLSCAASGFTFSSYAMSWVRQAPGKGLEWVSTINSGTGSPYYADSVKGRFTISRDNSKNTLYLQMNSLRAEDTAVYYCAKNFFDGSWFLSPPAMDYWGQGTLVTVSSHHHHHH", "reported-value": 220000}
{"binder": "AS170036 VL1VH1-56Y108D (scFv, also called 17-AS170036 VL1VH1-56Y108D) scFv: QSALTQPRSVSGSPGQSVTISCAGTSSDVGSENYVSWYQQHPGKAPKLMIYQVNKRASGVPDRFSGSKSGNTASLTISGLQAEDEADYYCASYRSSDHNIVFGGGTKLTVLGGGGSGGGGSGGGGSEVQLVESGGGLVQPGGSLRLSCAASGFTFSSYAMSWVRQAPGKGLEWVSTINSGTYSPYYADSVKGRFTISRDNSKNTLYLQMNSLRAEDTAVYYCAKNFFDGSWFLDPPAMDYWGQGTLVTVSSHHHHHH", "reported-value": 200000}
{"binder": "AS170036 VL1VH1 (scFv, Crude scFv from E. coli TG1 supernatant; also called AS170036 VL1VH1 scFv) scFv: QSALTQPRSVSGSPGQSVTISCAGTSSDVGSENYVSWYQQHPGKAPKLMIYQVNKRASGVPDRFSGSKSGNTASLTISGLQAEDEADYYCASYRSSDHNIVFGGGTKLTVLGGGGSGGGGSGGGGSEVQLVESGGGLVQPGGSLRLSCAASGFTFSSYAMSWVRQAPGKGLEWVSTINSGTGSPYYADSVKGRFTISRDNSKNTLYLQMNSLRAEDTAVYYCAKNFFDGSWFLGPPAMDYWGQGTLVTVSSHHHHHH", "reported-value": 490000}
{"binder": "AS170036 VL1VH1-56N98I (scFv, also called 05-AS170036 VL1VH1-56N98I) scFv: QSALTQPRSVSGSPGQSVTISCAGTSSDVGSENYVSWYQQHPGKAPKLMIYQVNKRASGVPDRFSGSKSGNTASLTISGLQAEDEADYYCASYRSSDINIVFGGGTKLTVLGGGGSGGGGSGGGGSEVQLVESGGGLVQPGGSLRLSCAASGFTFSSYAMSWVRQAPGKGLEWVSTINSGTNSPYYADSVKGRFTISRDNSKNTLYLQMNSLRAEDTAVYYCAKNFFDGSWFLGPPAMDYWGQGTLVTVSSHHHHHH", "reported-value": 270000}
{"binder": "AS170036 VL1VH1-98Q108A (scFv, also called 37-AS170036 VL1VH1-98Q108A) scFv: QSALTQPRSVSGSPGQSVTISCAGTSSDVGSENYVSWYQQHPGKAPKLMIYQVNKRASGVPDRFSGSKSGNTASLTISGLQAEDEADYYCASYRSSDQNIVFGGGTKLTVLGGGGSGGGGSGGGGSEVQLVESGGGLVQPGGSLRLSCAASGFTFSSYAMSWVRQAPGKGLEWVSTINSGTGSPYYADSVKGRFTISRDNSKNTLYLQMNSLRAEDTAVYYCAKNFFDGSWFLAPPAMDYWGQGTLVTVSSHHHHHH", "reported-value": 250000}
{"binder": "AS170036 VL1VH1-57M98F (scFv, also called 13-AS170036 VL1VH1-57M98F) scFv: QSALTQPRSVSGSPGQSVTISCAGTSSDVGSENYVSWYQQHPGKAPKLMIYQVNKRASGVPDRFSGSKSGNTASLTISGLQAEDEADYYCASYRSSDFNIVFGGGTKLTVLGGGGSGGGGSGGGGSEVQLVESGGGLVQPGGSLRLSCAASGFTFSSYAMSWVRQAPGKGLEWVSTINSGTGMPYYADSVKGRFTISRDNSKNTLYLQMNSLRAEDTAVYYCAKNFFDGSWFLGPPAMDYWGQGTLVTVSSHHHHHH", "reported-value": 360000}
{"binder": "AS170036 VL1VH1-57M98I (scFv, also called 14-AS170036 VL1VH1-57M98I) scFv: QSALTQPRSVSGSPGQSVTISCAGTSSDVGSENYVSWYQQHPGKAPKLMIYQVNKRASGVPDRFSGSKSGNTASLTISGLQAEDEADYYCASYRSSDINIVFGGGTKLTVLGGGGSGGGGSGGGGSEVQLVESGGGLVQPGGSLRLSCAASGFTFSSYAMSWVRQAPGKGLEWVSTINSGTGMPYYADSVKGRFTISRDNSKNTLYLQMNSLRAEDTAVYYCAKNFFDGSWFLGPPAMDYWGQGTLVTVSSHHHHHH", "reported-value": 310000}
